- System: primary dermal fibroblasts
- assay-method-text: % change in live cells vs DMSO control; higher = less cytotoxic
- conditions: 2.22222 µM; donor: 4; time (h post treatment): 48
Mark condition not met for % change in live cells values under -10%, and condition met for everything at or above.

Consider the worked cases shown below.
- CC(=O)O[C@H]1C[C@H](O[C@H]2[C@@H](O)C[C@H](O[C@H]3[C@@H](O)C[C@H](O[C@H]4CC[C@@]5(C)[C@H](CC[C@@H]6[C@@H]5C[C@@H](O)[C@]5(C)[C@@H](C7=CC(=O)OC7)CC[C@]65O)C4)O[C@@H]3C)O[C@@H]2C)O[C@H](C)[C@H]1O[C@@H]1O[C@H](CO)[C@@H](O)[C@H](O)[C@H]1O [Lanatoside C]: condition not met
- Nc1ccn([C@@H]2O[C@H](CO)[C@@H](O)C2(F)F)c(=O)n1: condition not met
- O=C(/C=C\n1cnc(-c2cc(C(F)(F)F)cc(C(F)(F)F)c2)n1)NNc1ccccn1 [Verdinexor]: condition met
- Cc1cccc(C)c1N(CC(=O)Nc1ccc(-c2ncon2)cc1)C(=O)C1CCS(=O)(=O)CC1: condition met
- CC(C)c1cnn2c(NCc3ccccc3-n3cccn3)nc(OC3CCCNC3)nc12 (stereo not given): condition met
- COc1ccc(-c2nc(N3CCOCC3)c3sc(CN(C)c4ncc(C(=O)NO)cn4)cc3n2)cn1 [Fimepinostat]: condition not met
- C=CC(=O)N1CC/C(=C\c2ccc(F)c([N+](=O)[O-])c2)C(=O)/C(=C/c2ccc(F)c([N+](=O)[O-])c2)C1: condition met
- Cc1nc(N(C)C(=O)Cc2ccc(-c3ccccn3)cc2)sc1S(N)(=O)=O: condition met

For this molecule, is measured % change in live cells -10% or higher? O=C(Nc1ccc([N+](=O)[O-])cc1Cl)c1cc(Cl)ccc1O [Niclosamide] condition met

Okay, and CC1(C)CC(=O)c2c(C(F)(F)F)nn(-c3ccc(C(N)=O)c(N[C@H]4CC[C@H](O)CC4)c3)c2C1 ? condition met

* * *

Give measured % change of HSV-1 GFP signal for each item. Keep answers brief.
- System: HSV-1 K26-GFP infected primary human skin cells
- assay-method-text: % change of HSV-1 GFP signal vs untreated infected cells; higher = less antiviral inhibition
- conditions: 6.6667 µM; cell type: primary dermal fibroblasts; donor: 4; time (h post infection): 48
Answers without a unit are incomplete; give the number and then its unit.

Answered cases to consult:
• Nc1ccn([C@@H]2O[C@H](CO)[C@@H](O)C2(F)F)c(=O)n1 [Gemcitabine] = -99.8%
• COc1ccc(-c2nc(N3CCOCC3)c3sc(CN(C)c4ncc(C(=O)NO)cn4)cc3n2)cn1 [Fimepinostat] = -11.4%
• O=C(Nc1ccc([N+](=O)[O-])cc1Cl)c1cc(Cl)ccc1O [Niclosamide] = -99.8%

Now, please, on to the next molecule.
Find the recorded % change of HSV-1 GFP signal belonging to O=C(/C=C\n1cnc(-c2cc(C(F)(F)F)cc(C(F)(F)F)c2)n1)NNc1ccccn1 [Verdinexor] and report it. -32.3%

* * *

- Tested on: HSV-1 K26-GFP infected primary human skin cells
- assay-method-text: % change of HSV-1 GFP signal vs untreated infected cells; higher = less antiviral inhibition
- conditions: 0.2469 µM; cell type: primary keratinocytes; donor: 5; time (h post infection): 20
Give measured % change of HSV-1 GFP signal for each item. Keep answers brief.
Answers are plain numbers, in %.

Answered cases to consult:
• CC1(C)CC(=O)c2c(C(F)(F)F)nn(-c3ccc(C(N)=O)c(N[C@H]4CC[C@H](O)CC4)c3)c2C1 [SNX-2112] = -99
• O=C(Nc1ccc([N+](=O)[O-])cc1Cl)c1cc(Cl)ccc1O [Niclosamide] = 2.59
• COc1ccc(-c2nc(N3CCOCC3)c3sc(CN(C)c4ncc(C(=O)NO)cn4)cc3n2)cn1 [Fimepinostat] = -44.7
• C=CC(=O)N1CC/C(=C\c2ccc(F)c([N+](=O)[O-])c2)C(=O)/C(=C/c2ccc(F)c([N+](=O)[O-])c2)C1 [VLX1570] = 5.33

Working through the 2 compounds below one at a time, give % change of HSV-1 GFP signal for each.
1. Cc1nc(N(C)C(=O)Cc2ccc(-c3ccccn3)cc2)sc1S(N)(=O)=O [Pritelivir]
2. CC(=O)O[C@H]1C[C@H](O[C@H]2[C@@H](O)C[C@H](O[C@H]3[C@@H](O)C[C@H](O[C@H]4CC[C@@]5(C)[C@H](CC[C@@H]6[C@@H]5C[C@@H](O)[C@]5(C)[C@@H](C7=CC(=O)OC7)CC[C@]65O)C4)O[C@@H]3C)O[C@@H]2C)O[C@H](C)[C@H]1O[C@@H]1O[C@H](CO)[C@@H](O)[C@H](O)[C@H]1O [Lanatoside C]

-72.3
-99.7

* * *

- System: HSV-1 K26-GFP infected 3D skin equivalent
- assay-method-text: % activity on HSV-1 GFP signal (0 = infected DMSO control, -100 = uninfected control); higher = higher signal (negative = inhibition / toxicity)
- conditions: 1.111111 µM; time (h post infection): 48; model: submerged
experimental-endpoint: % activity on HSV-1 GFP signal (%)
One number for each entry, in %.

- CC1(C)CC(=O)c2c(C(F)(F)F)nn(-c3ccc(C(N)=O)c(N[C@H]4CC[C@H](O)CC4)c3)c2C1 [SNX-2112]: -101

Working through the 5 compounds below one at a time, give % activity on HSV-1 GFP signal for each.
1. CC(=O)O[C@H]1C[C@H](O[C@H]2[C@@H](O)C[C@H](O[C@H]3[C@@H](O)C[C@H](O[C@H]4CC[C@@]5(C)[C@H](CC[C@@H]6[C@@H]5C[C@@H](O)[C@]5(C)[C@@H](C7=CC(=O)OC7)CC[C@]65O)C4)O[C@@H]3C)O[C@@H]2C)O[C@H](C)[C@H]1O[C@@H]1O[C@H](CO)[C@@H](O)[C@H](O)[C@H]1O [Lanatoside C]
2. C=CC(=O)N1CC/C(=C\c2ccc(F)c([N+](=O)[O-])c2)C(=O)/C(=C/c2ccc(F)c([N+](=O)[O-])c2)C1 [VLX1570]
3. O=C(Nc1ccc([N+](=O)[O-])cc1Cl)c1cc(Cl)ccc1O [Niclosamide]
4. O=C(/C=C\n1cnc(-c2cc(C(F)(F)F)cc(C(F)(F)F)c2)n1)NNc1ccccn1 [Verdinexor]
5. Cc1nc(N(C)C(=O)Cc2ccc(-c3ccccn3)cc2)sc1S(N)(=O)=O [Pritelivir]

1: -103; 2: -4.45; 3: -88.3; 4: -56.4; 5: -83.7

* * *

- Tested on: primary keratinocytes
- assay-method-text: % change in live cells vs DMSO control; higher = less cytotoxic
- conditions: 0.082305 µM; donor: 5; time (h post treatment): 20
experimental-endpoint: % change in live cells
Answers without a unit are incomplete; give the number and then its unit.

Answered cases to consult:
* O=C(Nc1ccc([N+](=O)[O-])cc1Cl)c1cc(Cl)ccc1O [Niclosamide] | -11.7%
* CC(C)c1cnn2c(NCc3ccccc3-n3cccn3)nc(OC3CCCNC3)nc12 (stereo not drawn) | -10.3%

Now, please, on to the next compound.
Please tell me: % change in live cells of CC1(C)CC(=O)c2c(C(F)(F)F)nn(-c3ccc(C(N)=O)c(N[C@H]4CC[C@H](O)CC4)c3)c2C1 , system primary keratinocytes? -22%

* * *

- Test system: HSV-1 K26-GFP infected 3D skin equivalent
- assay-method-text: % activity on HSV-1 GFP signal (0 = infected DMSO control, -100 = uninfected control); higher = higher signal (negative = inhibition / toxicity)
- conditions: 0.123457 µM; time (h post infection): 48; model: ALI
experimental-endpoint: % activity on HSV-1 GFP signal

Answered cases to consult:
• CC(C)c1cnn2c(NCc3ccccc3-n3cccn3)nc(OC3CCCNC3)nc12 (centres undefined) = -67.2%
• Cc1nc(N(C)C(=O)Cc2ccc(-c3ccccn3)cc2)sc1S(N)(=O)=O = -38.2%
• Nc1ccn([C@@H]2O[C@H](CO)[C@@H](O)C2(F)F)c(=O)n1 = -37.9%

Find the recorded % activity on HSV-1 GFP signal belonging to C=CC(=O)N1CC/C(=C\c2ccc(F)c([N+](=O)[O-])c2)C(=O)/C(=C/c2ccc(F)c([N+](=O)[O-])c2)C1 and report it. -18.6%

* * *

- Test system: HSV-1 K26-GFP infected primary human skin cells
- assay-method-text: % change of HSV-1 GFP signal vs untreated infected cells; higher = less antiviral inhibition
- conditions: 20 µM; cell type: primary keratinocytes; donor: 3; time (h post infection): 20
experimental-endpoint: % change of HSV-1 GFP signal (%)
Give bare numbers, in %.

Answered cases to consult:
* Nc1ccn([C@@H]2O[C@H](CO)[C@@H](O)C2(F)F)c(=O)n1 | -99.1
* COc1ccc(-c2nc(N3CCOCC3)c3sc(CN(C)c4ncc(C(=O)NO)cn4)cc3n2)cn1 [Fimepinostat] | -64.7
* O=C(/C=C\n1cnc(-c2cc(C(F)(F)F)cc(C(F)(F)F)c2)n1)NNc1ccccn1 [Verdinexor] | -92

Find the recorded % change of HSV-1 GFP signal belonging to Cc1cccc(C)c1N(CC(=O)Nc1ccc(-c2ncon2)cc1)C(=O)C1CCS(=O)(=O)CC1 and report it. -83.4
